# protocol: MTT cytotoxicity assay
# Assay type: cell-based
# testParameters: human, HFF cells
reportedEndpoint: viability at 24 h, 2 mg/mL (%)
Respond numerically; units are % and should not be typed.

Form: compound = O=c1[nH]cc(F)c(=O)[nH]1 [Free 5FU, 5-Fluorouracil] ; viability at 24 h, 2 mg/mL = 75.1

* * *

# protocol: MTT cytotoxicity assay
# Format: cell-based
# testParameters: human, HFF cells
reportedEndpoint: viability at 24 h, 1.5 mg/mL (%)
Respond numerically; units are % and should not be typed.

Form: compound = O=c1[nH]cc(F)c(=O)[nH]1 [Free 5FU, 5-Fluorouracil] ; viability at 24 h, 1.5 mg/mL = 75.9
